target: Cytochrome P450 2C19 (Homo sapiens)
Sequence (P33261 whole entry): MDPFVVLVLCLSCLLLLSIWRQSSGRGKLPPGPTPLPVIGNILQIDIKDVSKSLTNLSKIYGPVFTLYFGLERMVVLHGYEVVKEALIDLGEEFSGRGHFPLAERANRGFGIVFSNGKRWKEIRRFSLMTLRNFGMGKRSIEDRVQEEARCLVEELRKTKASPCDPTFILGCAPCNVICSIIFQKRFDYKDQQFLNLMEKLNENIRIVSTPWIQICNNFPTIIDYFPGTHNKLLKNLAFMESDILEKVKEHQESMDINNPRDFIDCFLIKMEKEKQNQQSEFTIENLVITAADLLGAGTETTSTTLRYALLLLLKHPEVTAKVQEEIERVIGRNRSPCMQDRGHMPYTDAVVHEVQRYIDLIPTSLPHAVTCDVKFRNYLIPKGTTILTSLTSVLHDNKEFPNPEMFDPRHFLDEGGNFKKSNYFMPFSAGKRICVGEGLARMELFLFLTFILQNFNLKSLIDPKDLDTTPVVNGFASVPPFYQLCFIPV
test.readout: IC50

[
  {
    "compound": "COc1ccsc1CNCC[C@@]1(c2ccccn2)CCOC2(CCCC2)C1 [OLICERIDINE]",
    "IC50": "> 50 µM"
  }
]

Would you kindly look at the next entry?
# input GET /values?readout=IC50&system=Cytochrome P450 2C19 (Homo sapiens)&item= Fc1ccc([C@]2(CCNCc3cccc(Cl)c3)CCO[C@]3(CCOC3)C2)nc1
# output > 33 µM

###

Examples of compounds with documented Vd follow.
experiment: Apparent volume of distribution in Sprague-Dawley rat at 2 mg/kg, iv by LC-MS/MS analysis; assay type: ADME, organism-based; settings: in vivo, read-out: Vz
Just the number please, in L/kg, no unit attached.

[
  {
    "smiles.entry": "COc1ccsc1CNCC[C@@]1(c2ccccn2)CCOC2(CCCC2)C1",
    "meas.value": 6.39
  }
]

# input Any idea what Vd was measured for Fc1ccc([C@]2(CCNCc3cccc(Cl)c3)CCO[C@]3(CCOC3)C2)nc1 ?
# output 10.8

###

biological target: Mu-type opioid receptor (Homo sapiens, UniProt P35372); assay: Agonist activity at human mu opioid receptor expressed in HEK293 assessed as increase in calcium mobilization incubated for 60 mins by FLIPR assay; format: functional, cell-based
Sequence (P35372 whole entry): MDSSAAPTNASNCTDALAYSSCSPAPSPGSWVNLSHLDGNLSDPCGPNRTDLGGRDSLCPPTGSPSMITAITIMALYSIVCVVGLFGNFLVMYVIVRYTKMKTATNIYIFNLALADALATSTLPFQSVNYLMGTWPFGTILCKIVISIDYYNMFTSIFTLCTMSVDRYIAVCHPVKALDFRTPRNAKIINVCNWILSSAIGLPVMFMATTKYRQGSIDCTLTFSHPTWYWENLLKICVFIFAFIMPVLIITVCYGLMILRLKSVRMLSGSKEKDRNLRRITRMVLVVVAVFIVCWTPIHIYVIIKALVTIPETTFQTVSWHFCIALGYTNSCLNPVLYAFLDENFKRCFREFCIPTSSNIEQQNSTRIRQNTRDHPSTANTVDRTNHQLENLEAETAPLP
test.readout: pEC50
Scale: negative log10 of molar concentration, which is what pEC50 denotes.

# input Any idea what pEC50 was measured for Fc1ccc([C@]2(CCNCc3cccc(Cl)c3)CCO[C@]3(CCOC3)C2)nc1 ?
# output 8.29
